Data credit: patent US11497731B2

Entries annotated with measured Meropenem MIC IMP1-producing strain
- System: bacteria into which a plasmid encoding IMP-1 was introduced (pBCSK (+)/E. coli DH5a)
- RUN DESCRIPTION: Drug susceptibility test (MIC), IMP-1-producing strain
- Assay type: cell-based
- RECORDED CONDITIONS: MIC of meropenem with inhibitor 10 μg/mL
MEASURED METRIC: Meropenem MIC IMP1-producing strain (µg/mL)

COMPOUND	ENDPOINT RESULT
CCc1c(C(=O)O)c(S(N)(=O)=O)c(CC)n1N [Compound X3a]	0.031
CCc1c(S(N)(=O)=O)c(C(=O)O)c(C)n1C [Compound X2b]	0.031
CCc1c(C(=O)O)c(S(N)(=O)=O)c(-c2ccccc2)n1C [Compound X2c]	0.031
CCc1c(C(=O)O)c(S(N)(=O)=O)c(C)n1C [Compound X2a]	0.031
CCc1c(C(=O)O)c(S(N)(=O)=O)c(C(C)C)n1C [Compound X4]	0.031
CCc1c(S(N)(=O)=O)c(C(=O)O)c(-c2ccccc2)n1C [Compound X2d]	0.031
